- Test system: HIV-1 (H9/IIIB strain)
- procedure details: Viking assay: antiviral potency in a multiple round HIV-1 infection assay in MT4-GFP cells
- Format: cell-based
- conditions used: Human immunodeficiency virus 1, IIIB, MT4-GFP cells infected with HIV-1 H9/IIIB, 10% normal human serum; inhibition of reproductive ratio R0; read-out: Viking, IC50 (10% NHS)
outcome measure: IC50 (nM)
Answers are plain numbers, in nM.

Example results:
>>> df
                                   compound           system_tested  outcome_measure  observed
0  CC(C)OC(=O)[C@H](C)NP(=O)(CO[C@H](C)Cn1cnc2c(N)ncnc21)ON=C(c1ccccc1)c1ccccc1 (stereo partly drawn)  HIV-1 (H9/IIIB strain)             IC50      18.6
1  CC(C)OC(=O)[C@H](C)NP(=O)(CO[C@H](C)Cn1cnc2c(N)ncnc21)ON=C1CCOCC1 (stereo partly drawn)  HIV-1 (H9/IIIB strain)             IC50       165

Lab note: next compound to report on.
Challenge: Value lookup for IC50; key = CC(C)OC(=O)[C@H](C)NP(=O)(CO[C@H](C)Cn1cnc2c(N)ncnc21)ON=C(C1CC1)C1CC1 (stereo partly drawn)
Response given: 46.8

---

Please respond with reported GI Tract stability for every item in the list.
- procedure details: Prodrug stability assay in bio-relevant media (FaSSIF with Pancreatin, GI tract stability)
- Format: in vitro ADME
- conditions used: HPLC peak area of prodrug at 5 h / 0 h, 0.5 mg/mL Pancreatin in FaSSIF, 37° C.
Numbers only, in %.

The examples below pair each entry with its known result.
>>> df
                                   molecule     outcome_measure  observed
0  CC(C)CC(CC(C)C)=NOP(=O)(CO[C@H](C)Cn1cnc2c(N)ncnc21)NC(C)(C)C(=O)OC1CCC1 (mixture of isomers) [Example 32]  GI Tract stability       5.6
1  CC(C)CC(CC(C)C)=NOP(=O)(CO[C@H](C)Cn1cnc2c(N)ncnc21)NC(C)(C)C(=O)OC(C)C (single isomer, unassigned) [Example 28]  GI Tract stability      93.1
2  CC(C)OC(=O)[C@H](C)NP(=O)(CO[C@H](C)Cn1cnc2c(N)ncnc21)ON=C(C1CC1)C1CC1 (stereo partly drawn) [Example 10]  GI Tract stability      95.0

Each molecule below has a recorded value; state its GI Tract stability.
1. C/C(=N\OP(=O)(CO[C@H](C)Cn1cnc2c(N)ncnc21)N[C@@H](C)C(=O)OC(C)C)C1CCCC1 (stereo partly drawn) [Example 21]
2. CC(C)=NOP(=O)(CO[C@H](C)Cn1cnc2c(N)ncnc21)NC(C)(C)C(=O)OC(C)C (stereo partly drawn) [Example 22]

Response given:
79.5
98.1

Lab note: each molecule below needs its GI Tract stability filled in.
1. C/C(=N\OP(=O)(CO[C@H](C)Cn1cnc2c(N)ncnc21)N[C@@H](C)C(=O)OC(C)C)C1CCCCC1 (stereo partly drawn) [Example 15]
2. CC(C)OC(=O)[C@H](C)NP(=O)(CO[C@H](C)Cn1cnc2c(N)ncnc21)ON=C1CCCC1 (stereo partly drawn) [Example 13]

Response given:
1. 33.4
2. 95.7

I would be grateful if you could provide GI Tract stability for each of the following entries.
1. CC(C)OC(=O)C(C)(C)NP(=O)(CO[C@H](C)Cn1cnc2c(N)ncnc21)ON=C1CCCC1 (mixture of isomers) [Example 27]
2. CC(C)CC(CC(C)C)=NOP(=O)(CO[C@H](C)Cn1cnc2c(N)ncnc21)N[C@@H](C)C(=O)OC(C)C (stereo partly drawn) [Example 12]

Response given:
1: 99.3; 2: 17.6

---

- System: HIV-1 (H9/IIIB strain)
- procedure details: Viking assay: antiviral potency in a multiple round HIV-1 infection assay in MT4-GFP cells
- Type: cell-based
- conditions used: Human immunodeficiency virus 1, IIIB, MT4-GFP cells infected with HIV-1 H9/IIIB, 10% normal human serum; inhibition of reproductive ratio R0; read-out: Viking, IC50 (10% NHS)
pIC50: −log10 of the molar value.
Please note: 1.0 applies when pIC50 is 8 or greater, and 0.0 applies otherwise.

These solved cases illustrate the format of a correct answer.
>>> print(df.to_string())
                                   compound  discrete_label
0  CC(C)OC(=O)[C@H](C)NP(=O)(CO[C@H](C)Cn1cnc2c(N)ncnc21)ON=C1CCCCC1 (stereo partly shown) [Example 8]             0.0
1  CC(C)OC(=O)[C@H](C)NP(=O)(CO[C@H](C)Cn1cnc2c(N)ncnc21)ON=C(C1CCCC1)C1CCCC1 (stereo partly shown) [Example 6]             0.0
2  CCC(CC)=NOP(=O)(CO[C@H](C)Cn1cnc2c(N)ncnc21)N[C@@H](C)C(=O)OC(C)C (stereo partly shown) [Example 7]             0.0
3  CC(C)CC(CC(C)C)=NOP(=O)(CO[C@H](C)Cn1cnc2c(N)ncnc21)NC(C)(C)C(=O)OC(C)C (single isomer, unassigned) [Example 28]             1.0
4  C/C(=N\OP(=O)(CO[C@H](C)Cn1cnc2c(N)ncnc21)N[C@@H](C)C(=O)OC(C)C)c1ccncc1 (stereo partly shown) [Example 16]             0.0

Now turn to the next compound.
Challenge: Quick check: does CC(C)=NOP(=O)(CO[C@H](C)Cn1cnc2c(N)ncnc21)N[C@@H](C)C(=O)OCc1ccccc1 (stereo partly shown) [Example 5] have pIC50 greater than or equal to 8?
Response given: 0.0
